Reference source: ChEMBL document CHEMBL2177072

As a worked illustration, we turn to pIC50 data collected for Beta-secretase 1 (Homo sapiens, UniProt P56817).
Expect pIC50 as a plain number equal to -log10 of the molar concentration.

>  <compound>
COc1ccc(C2(c3cccc(-c4cncnc4)c3)N=C(N)c3c(F)cccc32)cc1 (stereo not given)

>  <property-measured>
pIC50

>  <numeric-value>
6.87

$$$$
>  <compound>
NC1=NC(c2ccncc2)(c2cccc(-c3cncc(F)c3)c2)c2cccc(F)c21 (stereo not given)

>  <property-measured>
pIC50

>  <numeric-value>
6.86

$$$$
>  <compound>
NC1=NC(c2ccncc2)(c2cccc(-c3cncnc3)c2)c2cccc(F)c21 (racemic)

>  <property-measured>
pIC50

>  <numeric-value>
6.80

$$$$
>  <compound>
CCn1cc(C2(c3cccc(-c4cncnc4)c3)N=C(N)c3c(F)cccc32)cc(C)c1=O (stereo not given)

>  <property-measured>
pIC50

>  <numeric-value>
7.81

$$$$
>  <compound>
N#Cc1cncc(-c2cccc(C3(c4ccnc(C(F)(F)F)c4)N=C(N)c4c(F)cccc43)c2)c1 (stereo not given)

>  <property-measured>
pIC50

>  <numeric-value>
6.60

$$$$

[ask] Find the measured pIC50: item NC1=N[C@](c2ccncc2)(c2cccc(-c3cncnc3)c2)c2cccc(F)c21 , target or system Beta-secretase 1 (Homo sapiens, UniProt P56817).
[reply] 6.91

[ask] Then CC#Cc1cncc(-c2cccc(C3(c4ccnc(C(F)F)c4)N=C(N)c4c(F)cccc43)c2)c1 (stereo not given) ?
[reply] 8.19

[ask] Then CCn1cc([C@]2(c3cccc(C#CC4CC4)c3)N=C(N)c3c(F)cccc32)cc(C)c1=O ?
[reply] 8.22

[ask] Then CC#Cc1cncc(-c2cccc([C@@]3(c4cc(C)c(=O)n(CC)c4)N=C(N)c4c(F)cc(F)cc43)c2)c1 ?
[reply] 8.59

[ask] Then Cc1cc(C2(c3cccc(-c4cncnc4)c3)N=C(N)c3c(F)cccc32)cn(C)c1=O (stereo not given) ?
[reply] 7.22

[ask] Then NC1=NC(c2cccc(-c3cncnc3)c2)(c2ccnc(C(F)(F)F)c2)c2ccccc21 (stereo not given) ?
[reply] 6.87

[ask] Then CCn1cc(C2(c3cccc(-c4cncc(C#N)c4)c3)N=C(N)c3c(F)cccc32)cc(C)c1=O (stereo not given) ?
[reply] 8.08

[ask] Then CCn1cc([C@]2(c3cccc(NC(=O)c4ccc(Cl)cn4)c3)N=C(N)c3c(F)cccc32)cc(C)c1=O ?
[reply] 8.60

[ask] Then NC1=N[C@@](c2cccc(-c3cncnc3)c2)(c2ccnc(C(F)F)c2)c2cc(F)cc(F)c21 ?
[reply] 7.44

[ask] Then Cc1cc(C2(c3cccc(-c4cncnc4)c3)N=C(N)c3c(F)cccc32)cc(C)n1 (stereo not given) ?
[reply] 5.86
